- test: Acute toxicity in mice
- experimental parameters: mouse, in vivo, intravenous, read-out: LD50, intravenous, mice
parameter: LD50 at 8 h

• CS(=O)(=O)O.N#Cc1ccccc1CN1CCc2sccc2C1 [Methanesulfonate] = 134 mg/kg

###

- System: blood-platelet aggregation (ADP)
- test: Inhibitor action on blood-platelet aggregation, ADP method (ex vivo after gastric tube dosing)
- Type: in vivo, female rats of the Wistar type
- experimental parameters: 1 mn 30 s, 100 mg/Kg base equivalent at 48, 24 and 2 h before blood drawing, controls 0.29, 100 mg/kg
- Method: The inhibitor action on blood-platelet aggregation of the salts of the present invention was determined by two different standard methods known to the art. The first method, involving the use of ADP (adenosine diphosphate), is that of Ferrand J. C., Gaich C., Dumas, A.--EVALUATION DE L' EFFET ANTI-AGREGANT DE LA TICLOPIDINE PAR UNE TECHNIQUE SUR SANG TOTAL. COMM. […]
Structures can show the parent of a compound that is named as a salt.
parameter: BLOOD PLATELET AGGREGATION, ADP, 1 mn 30 s

* N#Cc1ccccc1CN1CCc2sccc2C1 [Nitrate] | 0.84
* N#Cc1ccccc1CN1CCc2sccc2C1 [Hemifumarate] | 0.76
* N#Cc1ccccc1CN1CCc2sccc2C1 [Hydrochloride] | 0.82
* N#Cc1ccccc1CN1CCc2sccc2C1 [Hemitartrate] | 0.74
